Recorded values, source paper PMC10713630.

# assayed-target: DmelOrco S146V (Drosophila melanogaster, UniProt Q9VNB5, S146V)
# assay-comment: TEVC recording of VUAA1-induced current, DmelOrco S146V in Xenopus oocytes
measured-quantity: EC50 (µM)
Give the quantity in µM, number only.

Sure, the documented EC50 for `CCc1ccc(NC(=O)CSc2nnc(-c3cccnc3)n2CC)cc1` is 82.2

----------
# assayed-target: DmelOrco I181S (Drosophila melanogaster, UniProt Q9VNB5, I181S)
# Sequence (Q9VNB5 whole entry I181S, the tested form may be a part): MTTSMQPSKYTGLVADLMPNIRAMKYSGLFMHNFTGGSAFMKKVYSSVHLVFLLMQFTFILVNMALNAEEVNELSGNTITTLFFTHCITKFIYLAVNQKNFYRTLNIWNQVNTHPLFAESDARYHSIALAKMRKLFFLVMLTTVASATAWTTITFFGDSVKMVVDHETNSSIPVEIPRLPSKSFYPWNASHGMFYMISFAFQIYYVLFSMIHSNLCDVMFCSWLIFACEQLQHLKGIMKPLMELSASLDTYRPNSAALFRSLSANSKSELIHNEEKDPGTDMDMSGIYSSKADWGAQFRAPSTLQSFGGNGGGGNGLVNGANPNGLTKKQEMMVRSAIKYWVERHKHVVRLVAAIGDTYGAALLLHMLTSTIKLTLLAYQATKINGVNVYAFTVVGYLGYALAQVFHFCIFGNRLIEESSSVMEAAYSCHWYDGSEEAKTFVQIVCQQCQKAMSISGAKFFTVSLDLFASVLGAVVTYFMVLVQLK
# assay-comment: TEVC recording of VUAA1-induced current, DmelOrco I181S in Xenopus oocytes
measured-quantity: EC50 (µM)
Give the quantity in µM, number only.

Sure, the documented EC50 for `CCc1ccc(NC(=O)CSc2nnc(-c3cccnc3)n2CC)cc1` is 102

----------
# assayed-target: DmelOrco M210W (Drosophila melanogaster, UniProt Q9VNB5, M210W)
# Sequence (Q9VNB5 whole entry M210W, the tested form may be a part): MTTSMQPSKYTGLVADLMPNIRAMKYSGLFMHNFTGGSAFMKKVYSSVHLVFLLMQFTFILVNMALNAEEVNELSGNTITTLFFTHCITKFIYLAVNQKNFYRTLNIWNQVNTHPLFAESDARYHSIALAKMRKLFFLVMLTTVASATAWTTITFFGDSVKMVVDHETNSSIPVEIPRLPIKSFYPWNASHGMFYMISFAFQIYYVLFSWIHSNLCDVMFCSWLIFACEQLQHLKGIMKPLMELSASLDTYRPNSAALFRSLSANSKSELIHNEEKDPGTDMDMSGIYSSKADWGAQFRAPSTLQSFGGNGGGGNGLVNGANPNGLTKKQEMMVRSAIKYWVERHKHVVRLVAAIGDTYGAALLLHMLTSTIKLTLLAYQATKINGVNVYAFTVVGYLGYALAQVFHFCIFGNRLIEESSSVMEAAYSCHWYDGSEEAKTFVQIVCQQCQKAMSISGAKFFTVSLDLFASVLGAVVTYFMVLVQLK
# assay-comment: TEVC recording of VUAA1-induced current, DmelOrco M210W in Xenopus oocytes
measured-quantity: EC50 (µM)
Give the quantity in µM, number only.

Sure, the documented EC50 for `CCc1ccc(NC(=O)CSc2nnc(-c3cccnc3)n2CC)cc1` is 120
